The reported numbers originate from the supplement of paper PMC7125110.

B1: glmS ribozyme (parent)
chain: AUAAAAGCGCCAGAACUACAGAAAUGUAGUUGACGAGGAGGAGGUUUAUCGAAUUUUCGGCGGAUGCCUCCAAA

# Variants of: B1
# Assay Protocol: self-cleavage kobs at 2500 uM GlcN6P; higher = faster cleavage; RNA array
# Condition: with glucosamine-6-phosphate
Variants at the floor of the assay were thinned out.
Experimental Endpoint: self-cleavage kobs at 2500 uM GlcN6P (s⁻¹)
Field: numeric (s⁻¹). Do not append units.

{"Mutation Notation": "U31C G32U", "self-cleavage kobs at 2500 uM GlcN6P, s⁻¹": 0.000281}

For the variant shown here, C11U G66A U69A , give the reported self-cleavage kobs at 2500 uM GlcN6P.
4.46e-05

# self-cleavage kobs at 2500 uM GlcN6P lookup, item U47A A48C
0.000222

Any idea what self-cleavage kobs at 2500 uM GlcN6P was measured for C16A G37U C61G U69G ?
5.77e-05

Give its self-cleavage kobs at 2500 uM GlcN6P value. Item: A12C U69C
0.00295

Which self-cleavage kobs at 2500 uM GlcN6P is listed for A6G A39G ?
0.000791

I am curious: what self-cleavage kobs at 2500 uM GlcN6P value has been reported for A15G G44A U65A ?
8e-05

Using the record for U56C G66C , report its self-cleavage kobs at 2500 uM GlcN6P.
8.66e-05

Quick one: self-cleavage kobs at 2500 uM GlcN6P of A15U G43U A53U C68U ?
8.35e-05

Bench note: what self-cleavage kobs at 2500 uM GlcN6P did U31A G44U show?
6.38e-05

Quick check: self-cleavage kobs at 2500 uM GlcN6P of U31C G37A ?
0.000119

Any idea what self-cleavage kobs at 2500 uM GlcN6P was measured for A53U G66C ?
0.000187
